- measurement protocol: Solubility of coumarins in RPMI 1640 media and DMSO
- Format: physicochemical
- condition summary: DMSO present for the stated solubility in RPMI 1640
measured quantity: DMSO Concentration
Please state the number and follow it with the unit.

# molecule, DMSO Concentration
measured = [
    ("O=c1cc(C(F)(F)F)c2ccc(O)cc2o1 [4-(trifluoromethyl)coumarin, 7-hydroxy-4-(trifluoromethyl)coumarin]", "0.2 % v/v"),
    ("O=c1ccc2cc(OC3OC(CO)C(O)C(O)C3O)c(O)cc2o1 (stereo not shown) [Esculin, 6,7 dihydroxycoumarin-6-glucoside]", "0 % v/v"),
    ("COc1cc2ccc(=O)oc2c(O)c1O [Fraxetin, 7,8 dihydroxy-6-methoxycoumarin]", "0.4 % v/v"),
]

Next item in the queue.
# input molecule: O=c1ccc2ccc(O)c(O)c2o1 [Daphnetin, 7,8-dihydroxycoumarin] ; wanted: its DMSO Concentration
0.1 % v/v

====

This listing pairs compounds with measured solubility.
- measurement protocol: Solubility of coumarins in RPMI 1640 media and DMSO
- Format: physicochemical
- condition summary: aqueous buffer, kinetic from dmso stock; pH = 7.0; in presence of the DMSO concentration of the same table line
Entry rule: numbers only, all in mM.

# compound, measured quantity, unit label, recorded result
measured = [
    ("COc1cc2ccc(=O)oc2c(O)c1O [Fraxetin, 7,8 dihydroxy-6-methoxycoumarin]", "solubility", "mM", 5),
    ("O=c1ccc2cc(OC3OC(CO)C(O)C(O)C3O)c(O)cc2o1 (stereo not drawn) [Esculin, 6,7 dihydroxycoumarin-6-glucoside]", "solubility", "mM", 20),
]

Next item in the queue.
# input compound: O=c1ccc2ccc(O)c(O)c2o1 [Daphnetin, 7,8-dihydroxycoumarin] ; wanted: its solubility
5
